meta.source: the supplement of paper PMC7877785

assay_notes: self-splicing fitness, log relative to wild type (ln ratio); higher = more splicing; Tetrahymena group I intron in knt gene, E. coli kanamycin selection, DiMSum; sequences stand for … in CUCUCU…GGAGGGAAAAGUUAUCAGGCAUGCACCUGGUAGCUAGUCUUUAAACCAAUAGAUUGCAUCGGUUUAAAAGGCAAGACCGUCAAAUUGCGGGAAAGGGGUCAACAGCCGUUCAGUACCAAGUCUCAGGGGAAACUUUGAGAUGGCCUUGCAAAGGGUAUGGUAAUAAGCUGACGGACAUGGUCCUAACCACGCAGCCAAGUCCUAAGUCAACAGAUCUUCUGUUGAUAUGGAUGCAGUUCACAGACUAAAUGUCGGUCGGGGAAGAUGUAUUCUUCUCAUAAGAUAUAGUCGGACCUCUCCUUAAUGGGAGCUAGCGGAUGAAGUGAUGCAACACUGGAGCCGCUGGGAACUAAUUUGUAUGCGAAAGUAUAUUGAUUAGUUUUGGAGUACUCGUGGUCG;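 also: selection with 25 µg/mL kanamycin versus none on LB agar overnight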
condition_notes: 30 °C
measured_quantity: self-splicing fitness (ln)
Could you respond with only the numeric value?

Ask: Answer with reported self-splicing fitness (ln) of AAGAAGCAAUAUUACGAGGA
Result: -3.43

Ask: Answer with reported self-splicing fitness (ln) of AUAGAGCAAUAUUACGUUCG
Result: -0.386

Ask: Answer with reported self-splicing fitness (ln) of ACCUAGCAAUAUUACGCACG
Result: -0.85

Ask: Answer with reported self-splicing fitness (ln) of AUCUAGCAAUAUUACGAUAU
Result: -1.15

Ask: Answer with reported self-splicing fitness (ln) of ACUGAGCAAUAUUACGCUUA
Result: -3.12

Ask: Answer with reported self-splicing fitness (ln) of AGGAAGCAAUAUUACGUAAC
Result: -3.65

Ask: Answer with reported self-splicing fitness (ln) of ACCAAGCAAUAUUACGGUAG
Result: -4.33

Ask: Answer with reported self-splicing fitness (ln) of CAUCAGCAAUAUUACGCACA
Result: -0.992

Ask: Answer with reported self-splicing fitness (ln) of UACUAGCAAUAUUACGUGAU
Result: -3.07

Ask: Answer with reported self-splicing fitness (ln) of CUGCAGCAAUAUUACGCAGG
Result: -2.91

Ask: Answer with reported self-splicing fitness (ln) of GUUUAGCAAUAUUACGAUUA
Result: -1.93

Ask: Answer with reported self-splicing fitness (ln) of ACAAAGCAAUAUUACGUGAA
Result: -1.51

Ask: Answer with reported self-splicing fitness (ln) of GACUAGCAAUAUUACGGCAG
Result: -2.84

Ask: Answer with reported self-splicing fitness (ln) of CUUCAGCAAUAUUACGAAGU
Result: -2.31

Ask: Answer with reported self-splicing fitness (ln) of GCCAAGCAAUAUUACGACAA
Result: -3.73

Ask: Answer with reported self-splicing fitness (ln) of UGGAAGCAAUAUUACGCGGU
Result: -2.87
